methodNotes: Solubility in water and salt solutions
Format: physicochemical
conditionLabel: deionized water, water, deionized water; read-out: solubility
measuredProperty: solubility (mM)

{"testSmiles": "O=C1c2ccc(OCCCS(=O)(=O)[O-])cc2C(=O)c2ccc(OCCCS(=O)(=O)[O-])cc21.[Na+].[Na+]", "measuredProperty": "solubility", "endpointResult": 10}

* * *

methodNotes: Solubility in water and salt solutions
Format: physicochemical
conditionLabel: 1 M sodium chloride, saline or isotonic, 1 M sodium chloride; read-out: solubility

{"testSmiles": "O=C1c2ccc(OCCCS(=O)(=O)[O-])cc2C(=O)c2ccc(OCCCS(=O)(=O)[O-])cc21.[Na+].[Na+]", "solubility": "< 5 mM"}

* * *

Readings of solubility for the listed compounds
methodNotes: Solubility in water and salt solutions
Format: physicochemical
conditionLabel: water; read-out: water solubility

{"compound": "O=C1c2ccc(CCCS(=O)(=O)[O-])cc2C(=O)c2ccc(CCCS(=O)(=O)[O-])cc21.[Na+].[Na+] [2,6-DPSAQ]", "unitText": "mM", "solubility": 300}
{"compound": "O=C1c2ccc(N(CCCS(=O)(=O)O)CCCS(=O)(=O)O)cc2C(=O)c2ccc(N(CCCS(=O)(=O)O)CCCS(=O)(=O)O)cc21 [2,6-N-TSAQ]", "unitText": "mM", "solubility": 450}

* * *

methodNotes: Solubility in water and salt solutions
Assay type: physicochemical
conditionLabel: 1 M lithium chloride, saline or isotonic, 1 M lithium chloride; read-out: solubility
measuredProperty: solubility (mM)

{"compound": "O=C1c2ccc(OCCCS(=O)(=O)[O-])cc2C(=O)c2ccc(OCCCS(=O)(=O)[O-])cc21.[Na+].[Na+] [2,6-O-DPSAQ]", "measuredProperty": "solubility", "endpointResult": 10}
